Recorded MNTC, one value per entry.
Assay: in vitro
Details: monkey, vero cells

| smiles entry | MNTC |
| --- | --- |
| CCOC(=O)c1ccc(OCCCCC(=O)c2ccc(Cl)s2)cc1 | > 190 µM |

Summary for this compound, "Cn1cc(C(=O)CCCCOc2ccc(C3=NCCO3)cc2)cc1C=O" : MNTC is > 280 µM

Summary for this compound, "O=C(CCCCOc1ccc(C2=NCCO2)cc1)c1ccc(Cl)s1" : MNTC is > 275 µM

Summary for this compound, "Cn1cccc1C(=O)CCCCOc1ccc(C2=NCCO2)cc1" : MNTC is > 300 µM

Summary for this compound, "Cn1cc(C(=O)CCCCOc2ccc(C(=O)O)cc2)cc1C=O" : MNTC is 380 µM
